- Protocol: chemical genetic growth profiling, strain panel (AID 1159580);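 also: tested at 20 µM; growth read once vehicle control cultures reached saturation at 30 °C; 1 = growth at the plate median or of vehicle wells; lower values mean less growth of the strain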
- Condition Label: S. cerevisiae deletion strains, growth OD, locus YBR009C, strain hhf1, active compounds read low
About 2,000 (36%) of roughly 5,500 compounds were called active. Inconclusive results (about 18%) are left out. This is one part of the list.
Listing of recorded normalized growth by entry.
Respond using a number only.

[
  {
    "Compound": "C[C@@H]1CC[C@H]2[C@@H](C)C(O)O[C@@H]3O[C@@]4(C)CC[C@@H]1[C@]32OO4 (some centres not stated)",
    "Test Result": 0.215
  },
  {
    "Compound": "C#C[C@]1(O)CCC2C3CCC4=C(CCC(=O)C4)C3CC[C@@]21C (some centres not stated)",
    "Test Result": 0.941
  },
  {
    "Compound": "O=C1c2c(O)cccc2Cc2cccc(O)c21",
    "Test Result": 0.997
  },
  {
    "Compound": "Nc1c2c(nc3ccccc13)CCCC2",
    "Test Result": 0.978
  }
]

# get_value(readout='normalized growth', item= Nc1c2c(nc3ccccc13)CCCC2O (configuration not stated) )
1

What does the record list as normalized growth for CCOP(=S)(OCC)Oc1nc(Cl)c(Cl)cc1Cl ?
0.873

Quick one: normalized growth for C[C@H]1[C@H](C)CC[C@]2(CO)CC[C@]3(C)C(=CCC4[C@@]5(C)CC[C@H](O)C(C)(C)C5CC[C@]43C)[C@H]12 (some centres not stated) ?
1.01

###

- Protocol: chemical genetic growth profiling, strain panel (AID 1159580)
- Condition Label: S. cerevisiae deletion strains, growth OD, locus YLR418C, strain cdc73, active compounds read low
Screen size: about 5,500 compounds; about 2,000 (36%) were called active. Another 18% or so got no clear call; they are omitted. The list shows a part of the results.
Measured Metric: normalized growth
Just the number, please, no unit attached.

[
  {
    "Compound": "Cc1ccc(-c2cc(C(F)(F)F)nn2-c2ccc(S(N)(=O)=O)cc2)cc1",
    "Measured Metric": "normalized growth",
    "Test Result": 1.01
  },
  {
    "Compound": "C[C@]12CCC(=O)C=C1CCC1C2[C@@H](O)C[C@@]2(C)C1CC[C@]2(O)C(=O)CO (stereo not given in full)",
    "Measured Metric": "normalized growth",
    "Test Result": 1.01
  },
  {
    "Compound": "Nc1ccc(S(=O)(=O)Nc2cnc3ccccc3n2)cc1",
    "Measured Metric": "normalized growth",
    "Test Result": 0.979
  },
  {
    "Compound": "CNC(=O)O/N=C\\C(C)(C)SC",
    "Measured Metric": "normalized growth",
    "Test Result": 1.01
  }
]

Next, consider the following compound.
Form field: reported normalized growth of Nc1ccc(S(=O)(=O)Nc2ccnn2-c2ccccc2)cc1
1.01

###

- Protocol: chemical genetic growth profiling, strain panel (AID 1159580)
- Condition Label: S. cerevisiae deletion strains, growth OD, locus YLR058C, strain SHM2, active compounds read low
The whole screen tested about 5,500 compounds, of which about 2,000 (36%) were called active. Inconclusive results (about 18%) are left out. The list shows a part of the results.
Quick reference: normalized growth of the listed items.
Output spec: single numeric token, no unit.

Use the examples below as a reference point.
[
  {
    "Molecule": "C#C[C@]1(O)CCC2C3CCC4=CC(=O)CC[C@@H]4C3CC[C@@]21C (some centres undefined)",
    "normalized growth": 0.989
  },
  {
    "Molecule": "COc1cc(N)c(Cl)cc1C(=O)NC1CCN(Cc2ccccc2)CC1",
    "normalized growth": 0.988
  },
  {
    "Molecule": "CC(C)=CCCC1(C)C=Cc2c(O)c3c(c(CC=C(C)C)c2O1)OC12C(=CCCC1C(C)(C)O[C@@]2(C/C=C(\\C)C(=O)O)C(=O)O)C3=O (some centres undefined)",
    "normalized growth": 0.803
  },
  {
    "Molecule": "C[C@]12CCC(=O)C=C1CCC1C2[C@@H](O)C[C@@]2(C)C1CC[C@]2(O)C(=O)CO (some centres undefined)",
    "normalized growth": 1.02
  },
  {
    "Molecule": "C#C[C@]1(O)CCC2C3CCC4=C(CCC(=O)C4)C3CC[C@@]21C (some centres undefined)",
    "normalized growth": 1.01
  }
]

Consider the molecule shown here: Nc1ccccc1C(=O)CC(N)C(=O)O (centres undefined) What is its recorded normalized growth?
1.01

Name the reported normalized growth value associated with the molecule O=C(O)/C=C1\CCCc2ccccc2C1O (centres undefined)
0.988

Entry under review: CC(C)=CCCC1(C)C=Cc2c(O)c3c(c(CC=C(C)C)c2O1)OC12C(=CC4CC1C(C)(C)OC2(C/C=C(\C)C(N)=O)C4=O)C3=O (centres undefined) . Reported normalized growth?
0.946

Query: normalized growth; subject: COC(=O)Nc1nc2ccc(C(=O)c3ccccc3)cc2[nH]1
1.02

###

- Protocol: chemical genetic growth profiling, strain panel (AID 1159580);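 also: tested at 20 µM; growth read once vehicle control cultures reached saturation at 30 °C; 1 = growth at the plate median or of vehicle wells; lower values mean less growth of the strain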
- Condition Label: S. cerevisiae deletion strains, growth OD, locus YDR159W, strain sac3, active compounds read low
Screen size: about 5,500 compounds; about 2,000 (36%) were called active. Another 18% or so got no clear call; they are omitted. Some of the results follow.
In this section we review reported normalized growth values for a set of molecules.
Answer using only a numeral; do not append any unit.

Worked examples, 6 molecules total:
[
  {
    "Molecule": "Cc1cn([C@H]2C[C@H](N=[N+]=[N-])[C@@H](CO)O2)c(=O)[nH]c1=O",
    "normalized growth": 0.971
  },
  {
    "Molecule": "OC(CCN1CCCC1)(c1ccccc1)C1CCCCC1 (stereo not drawn)",
    "normalized growth": 0.991
  },
  {
    "Molecule": "NCCC(=O)N[C@@H](Cc1cnc[nH]1)C(=O)O",
    "normalized growth": 1.02
  },
  {
    "Molecule": "Cc1ccc(-c2cc(C(F)(F)F)nn2-c2ccc(S(N)(=O)=O)cc2)cc1",
    "normalized growth": 1.02
  },
  {
    "Molecule": "OC(CCN1CCCCC1)(c1ccccc1)C1CCCCC1 (stereo not drawn)",
    "normalized growth": 0.998
  },
  {
    "Molecule": "O=C(CNC(=O)c1ccc(Cl)cc1)NO",
    "normalized growth": 1.01
  }
]

Okay, now this molecule:
Suppose we examine the molecule COc1cc(N)c(Cl)cc1C(=O)NC1CCN(Cc2ccccc2)CC1 ; what normalized growth value has been reported?
1

###

- Protocol: chemical genetic growth profiling, strain panel (AID 1159580);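 also: tested at 20 µM; growth read once vehicle control cultures reached saturation at 30 °C; 1 = growth at the plate median or of vehicle wells; lower values mean less growth of the strain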
- Condition Label: S. cerevisiae deletion strains, growth OD, locus YEL061C, strain CIN8 (second series), active compounds read low
Screen size: about 5,500 compounds; about 2,000 (36%) were called active. Not shown: some 18% with an inconclusive outcome. Some of the results follow.
Measured Metric: normalized growth
Enter a number only.

Known normalized growth results, listed for orientation:
[
  {
    "Molecule": "CCCCCCCCCCCCCCC(C(=O)O)C(O)(CC(=O)OC)C(=O)O (stereo unspecified)",
    "normalized growth": 1.01
  },
  {
    "Molecule": "O=C(O)CC(O)(CC(=O)O)C(=O)O",
    "normalized growth": 1
  }
]

Which normalized growth value is on record for C#C[C@]1(OC(C)=O)CCC2C3CCC4=C/C(=N\O)CCC4C3CC[C@@]21CC (stereo partly specified) ?
0.996

Name the recorded normalized growth for CC(CC(=O)C(O)C(C)(C)O)C1C(=O)CC2(C)C3=CCC4C(C)(C)C(OC5OCC(O)C(O)C5O)CCC45CC35C(O)CC12C (stereo unspecified) .
1.01

May I ask what normalized growth has been recorded for COc1ccc2[nH]cc(CCN)c2c1 ?
0.989

Recorded normalized growth of NNc1nncc2ccccc12 , please.
1

normalized growth lookup needed for CC1(C)CC[C@]2(C(=O)O)CC[C@]3(C)C(=CCC4[C@@]5(C)CC[C@H](O)[C@@](C)(CO)C5CC[C@]43C)C2C1 (stereo partly specified) , thanks.
1.02

Any idea what its normalized growth is? The molecule is CC(C)CC(N(C)C)C1(c2ccc(Cl)cc2)CCC1 (stereo unspecified)
1

Value lookup for normalized growth; key = CCC(C)C(NC)C(=O)O (stereo unspecified)
1.02

# query: normalized growth of entry CC(=O)O[C@@H]1CC[C@@]2(C)C(CC[C@]3(C)C2CC=C2C4CC(C)(C)CC[C@]4(C(=O)O)CC[C@]23C)C1(C)C (stereo partly specified)
1.01

Sample O=c1oc2cc(O)ccc2s1 — what was its normalized growth?
1.01

###

- Protocol: chemical genetic growth profiling, strain panel (AID 1159580);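 also: tested at 20 µM; growth read once vehicle control cultures reached saturation at 30 °C; 1 = growth at the plate median or of vehicle wells; lower values mean less growth of the strain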
- Condition Label: S. cerevisiae deletion strains, growth OD, locus YMR078C, strain ctf18, active compounds read low
Among all 5,500 compounds or so, about 2,000 (36%) were called active. Inconclusive results (about 18%) are left out. This is one part of the list.
Measured Metric: normalized growth

Before answering, review these 5 worked examples.
[
  {
    "Compound": "C/C=C(/C)C(=O)OC1CCC2(C)C3CCC4C5(O)CC(O)C6(O)C(CN7CC(C)CCC7C6(C)O)C5(O)CC42OC13O (configuration not stated)",
    "normalized growth": "0.968 (inactive)"
  },
  {
    "Compound": "Cc1cc(O)cc(O)c1C(=O)O",
    "normalized growth": "1 (inactive)"
  },
  {
    "Compound": "O=C1C(O)=C(O)C(=O)C(O)=C1O",
    "normalized growth": "0.995 (inactive)"
  },
  {
    "Compound": "CC(C)CC(N(C)C)C1(c2ccc(Cl)cc2)CCC1 (configuration not stated)",
    "normalized growth": "1.02 (inactive)"
  },
  {
    "Compound": "OC(CCN1CCCCC1)(c1ccccc1)C1CCCCC1 (configuration not stated)",
    "normalized growth": "0.998 (inactive)"
  }
]

For the compound COc1ccc2c(c1)c(CC(=O)O)c(C)n2C(=O)c1ccc(Cl)cc1 , what normalized growth is on record?
0.973 (inactive)

Reported normalized growth for Cc1ccc(-c2cc(C(F)(F)F)nn2-c2ccc(S(N)(=O)=O)cc2)cc1 : what is it?
1.02 (inactive)

What does the record list as normalized growth for CCOC(=O)OC(C)OC(=O)C1N2C(=O)C(NC(=O)[C@H](N)c3ccccc3)C2SC1(C)C (some centres not stated) ?
0.994 (inactive)

Quick check: normalized growth of O=c1cc(CO)occ1O ?
1.03 (inactive)

# query: normalized growth of entry Cc1cc(O)ccc1Cl
1.01 (inactive)
